Recorded IC50 values for a group of compounds are listed next.
measured on: UniProt:Q9P2K8
assay method text: GCN2 enzymatic endpoint assay: phosphorylation of GFP-eIF2α measured by TR-FRET (Lanthascreen)
Format: biochemical
test context: GCN2 biochemical IC50; 4 nM GCN2, 2 μM ATP, 80 nM GFP-eIF2α, 90 min RT; read-out: GCN2 activity
Counter-ions that a name gives are not always drawn.

- compound: "CNC(=O)[C@]1(C)CC[C@@H](Nc2ncc3c(Br)nn(-c4cc(CCO)c5ncccc5c4)c3n2)C1 [Example 29, hydrochloride]"
  IC50: "< 25 nM"
- compound: "CNC(=O)[C@]1(CC#N)CC[C@@H](Nc2ncc3c(Br)nn(-c4cc(F)c5ncccc5c4)c3n2)C1 (single isomer, unassigned) [Example 19]"
  IC50: "25 to 200 nM"
- compound: "CNC(=O)[C@]1(C)CC[C@@H](Nc2ncc3c(Br)nn(-c4ccc(-c5nnc(C)s5)c(CCC#N)c4)c3n2)C1"
  IC50: "25 to 200 nM"
- compound: "CNC(=O)[C@]1(C)CC[C@@H](Nc2ncc3c(Br)nn(-c4cc(CCN)c5ncccc5c4)c3n2)C1"
  IC50: "< 25 nM"
- compound: "CNC(=O)[C@]1(CC(F)F)CC[C@@H](Nc2ncc3c(Br)nn(-c4ccc5nccnc5c4)c3n2)C1"
  IC50: "25 to 200 nM"
- compound: "CNC(=O)[C@]1(C)CC[C@@H](Nc2ncc3c(Br)nn(-c4ccc(Cl)c([C@H](C)N)c4)c3n2)C1"
  IC50: "< 25 nM"
- compound: "CNC(=O)[C@]1(C)CC[C@@H](Nc2ncc3c(Br)nn(-c4cc(C#N)cc(OCC5(F)CNC5)c4)c3n2)C1"
  IC50: "< 25 nM"

---

measured on: GCN2 (Homo sapiens, UniProt Q9P2K8)
Sequence (Q9P2K8 whole entry): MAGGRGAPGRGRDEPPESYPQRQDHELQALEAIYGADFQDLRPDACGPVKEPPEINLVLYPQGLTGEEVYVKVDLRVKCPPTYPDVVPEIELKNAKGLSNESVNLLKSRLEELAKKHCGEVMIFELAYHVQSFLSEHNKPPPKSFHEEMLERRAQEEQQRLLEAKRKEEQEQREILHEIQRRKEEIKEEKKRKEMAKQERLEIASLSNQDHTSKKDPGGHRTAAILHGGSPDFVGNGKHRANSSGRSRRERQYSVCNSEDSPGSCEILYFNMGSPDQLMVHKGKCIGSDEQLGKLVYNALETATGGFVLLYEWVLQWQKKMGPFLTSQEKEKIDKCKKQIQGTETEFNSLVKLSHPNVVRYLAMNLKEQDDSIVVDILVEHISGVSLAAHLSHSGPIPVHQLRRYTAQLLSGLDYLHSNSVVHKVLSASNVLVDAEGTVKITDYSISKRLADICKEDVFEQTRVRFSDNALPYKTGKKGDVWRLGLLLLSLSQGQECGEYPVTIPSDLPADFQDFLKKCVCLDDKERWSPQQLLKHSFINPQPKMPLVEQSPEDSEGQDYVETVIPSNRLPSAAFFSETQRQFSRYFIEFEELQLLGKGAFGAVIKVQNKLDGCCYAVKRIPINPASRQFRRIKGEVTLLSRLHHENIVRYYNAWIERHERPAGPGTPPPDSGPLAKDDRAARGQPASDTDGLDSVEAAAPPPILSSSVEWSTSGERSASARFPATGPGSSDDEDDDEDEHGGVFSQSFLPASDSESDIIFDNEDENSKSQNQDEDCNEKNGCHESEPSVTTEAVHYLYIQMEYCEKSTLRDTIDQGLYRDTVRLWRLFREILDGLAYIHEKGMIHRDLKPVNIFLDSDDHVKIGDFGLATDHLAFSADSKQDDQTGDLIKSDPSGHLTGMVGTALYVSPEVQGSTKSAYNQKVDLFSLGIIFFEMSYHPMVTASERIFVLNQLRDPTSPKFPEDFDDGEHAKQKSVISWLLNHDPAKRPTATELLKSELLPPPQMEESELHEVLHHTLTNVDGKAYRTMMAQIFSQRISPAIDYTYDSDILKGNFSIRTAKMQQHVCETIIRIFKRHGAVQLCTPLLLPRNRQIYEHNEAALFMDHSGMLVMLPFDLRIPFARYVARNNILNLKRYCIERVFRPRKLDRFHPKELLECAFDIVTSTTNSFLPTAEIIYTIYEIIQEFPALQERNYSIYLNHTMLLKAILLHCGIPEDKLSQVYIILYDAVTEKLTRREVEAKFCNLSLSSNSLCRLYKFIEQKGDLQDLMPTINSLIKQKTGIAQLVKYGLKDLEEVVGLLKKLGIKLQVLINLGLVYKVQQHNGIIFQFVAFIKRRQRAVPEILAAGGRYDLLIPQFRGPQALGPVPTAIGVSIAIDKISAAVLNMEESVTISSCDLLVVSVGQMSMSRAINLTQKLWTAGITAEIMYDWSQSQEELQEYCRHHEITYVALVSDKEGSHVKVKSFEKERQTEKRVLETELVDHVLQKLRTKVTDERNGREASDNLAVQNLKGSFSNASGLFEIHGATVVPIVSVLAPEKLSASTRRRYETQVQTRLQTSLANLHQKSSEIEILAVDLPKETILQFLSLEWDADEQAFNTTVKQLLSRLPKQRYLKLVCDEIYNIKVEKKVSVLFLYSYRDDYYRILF
assay method text: GCN2 enzymatic endpoint assay: phosphorylation of GFP-eIF2α measured by TR-FRET (Lanthascreen)
Assay type: biochemical
test context: GCN2 biochemical IC50; 4 nM GCN2, 2 μM ATP, 80 nM GFP-eIF2α, 90 min RT; read-out: GCN2 activity

- molecule: "CNC(=O)[C@]1(C)CC[C@@H](Nc2ncc3c(Br)nn(-c4cc(C#N)c5ncccc5c4)c3n2)C1 (single isomer, unassigned)"
  measured on: "GCN2 (Homo sapiens, UniProt Q9P2K8)"
  IC50: "< 25 nM"
- molecule: "CNC(=O)[C@]1(C)CC[C@@H](Nc2ncc3c(Br)nn(-c4cc(C#N)c5c(c4)CCO5)c3n2)C1"
  measured on: "GCN2 (Homo sapiens, UniProt Q9P2K8)"
  IC50: "25 to 200 nM"
- molecule: "COCCC(=O)N[C@H]1C[C@H](Nc2ncc3c(Br)nn(-c4ccc5ncccc5c4)c3n2)C1"
  measured on: "GCN2 (Homo sapiens, UniProt Q9P2K8)"
  IC50: "500 to 1000 nM"
- molecule: "CC[C@@H](N)c1cc(-n2nc(Br)c3cnc(N[C@@H]4CC[C@@](C)(C(=O)NC)C4)nc32)cc2nccnc12"
  measured on: "GCN2 (Homo sapiens, UniProt Q9P2K8)"
  IC50: "< 25 nM"
- molecule: "NC(=O)[C@@H]1CC[C@@H](Nc2ncc3c(Br)nn(-c4cc(F)c5ncccc5c4)c3n2)C1"
  measured on: "GCN2 (Homo sapiens, UniProt Q9P2K8)"
  IC50: "25 to 200 nM"
- molecule: "COCCNC(=O)[C@@H]1CC[C@@H](Nc2ncc3c(Br)nn(-c4ccc(-c5ncco5)cc4)c3n2)C1"
  measured on: "GCN2 (Homo sapiens, UniProt Q9P2K8)"
  IC50: "25 to 200 nM"
- molecule: "C[C@H](N)c1cc(Cl)cc(-n2nc(Br)c3cnc(N[C@@H]4CC[C@@](C)(O)C4)nc32)c1"
  measured on: "GCN2 (Homo sapiens, UniProt Q9P2K8)"
  IC50: "25 to 200 nM"
- molecule: "COCCNC(=O)[C@@H]1CC[C@@H](Nc2ncc3c(Br)nn(-c4ccc(-c5cccnc5)cc4)c3n2)C1"
  measured on: "GCN2 (Homo sapiens, UniProt Q9P2K8)"
  IC50: "200 to 500 nM"
- molecule: "Cc1nnc(-c2ccc(-n3nc(Br)c4cnc(N[C@@H]5CC[C@@](C)(O)C5)nc43)cc2)s1"
  measured on: "GCN2 (Homo sapiens, UniProt Q9P2K8)"
  IC50: "25 to 200 nM"
- molecule: "Brc1nn(-c2ccc3ncccc3c2)c2nc(N[C@@H]3CCC(N4CCOCC4)C3)ncc12 (mixture of isomers)"
  measured on: "GCN2 (Homo sapiens, UniProt Q9P2K8)"
  IC50: "25 to 200 nM"
- molecule: "CNS(=O)(=O)[C@@H]1CC[C@@H](Nc2ncc3c(Br)nn(-c4ccc(-c5nnc(C)s5)cc4)c3n2)C1"
  measured on: "GCN2 (Homo sapiens, UniProt Q9P2K8)"
  IC50: "< 25 nM"
- molecule: "CNC(=O)[C@]1(C)CC[C@@H](Nc2ncc3c(Br)nn(-c4cc(Cl)cc(CN)c4)c3n2)C1"
  measured on: "GCN2 (Homo sapiens, UniProt Q9P2K8)"
  IC50: "25 to 200 nM"
- molecule: "CNC(=O)[C@]1(C)CC[C@@H](Nc2ncc3c(Br)nn(-c4ccc(-c5ncco5)c(CCN(C)C)c4)c3n2)C1"
  measured on: "GCN2 (Homo sapiens, UniProt Q9P2K8)"
  IC50: "25 to 200 nM"
- molecule: "CNC(=O)[C@]1(C)CC[C@@H](Nc2ncc3c(Br)nn(-c4ccc5nc(N6CCC6)ncc5c4)c3n2)C1"
  measured on: "GCN2 (Homo sapiens, UniProt Q9P2K8)"
  IC50: "25 to 200 nM"

---

measured on: GCN2 (Homo sapiens, UniProt Q9P2K8)
assay method text: GCN2 enzymatic endpoint assay: phosphorylation of GFP-eIF2α measured by TR-FRET (Lanthascreen)
Format: biochemical
test context: tested as described in Example 77; compound and/or hydrochloride, dihydrochloride or trifluoroacetic acid salt; read-out: IC 50 Activity
Recorded IC50 values for a group of compounds are listed next.
readout: IC50

- compound: "COCCNS(=O)(=O)[C@@H]1CC[C@@H](Nc2ncc3c(Br)nn(-c4ccc5ncccc5c4)c3n2)C1"
  observed: "0.025 to 0.2 µM"
- compound: "CNC(=O)[C@]1(C)CC[C@@H](Nc2ncc3c(Br)nn(-c4ccc5c(c4)CCN(S(C)(=O)=O)C5)c3n2)C1"
  observed: "0.025 to 0.2 µM"
- compound: "CNC(=O)[C@]1(CCOC)CC[C@@H](Nc2ncc3c(Br)nn(-c4ccc(-c5nnc(C)s5)cc4)c3n2)C1"
  observed: "0.025 to 0.2 µM"
- compound: "CNC(=O)[C@]1(C)CC[C@@H](Nc2ncc3c(Br)nn(-c4ccc5c(c4)CN(C=O)CC5)c3n2)C1"
  observed: "0.025 to 0.2 µM"
- compound: "O=C([C@@H]1CC[C@@H](Nc2ncc3c(Br)nn(-c4ccc5ncccc5c4)c3n2)C1)N1CC[S+]([O-])CC1"
  observed: "0.025 to 0.2 µM"
- compound: "CNC(=O)[C@]1(OC)CC[C@@H](Nc2ncc3c(Br)nn(-c4cc(F)c5ncccc5c4)c3n2)C1"
  observed: "0.025 to 0.2 µM"
- compound: "N#Cc1cc(-n2nc(Br)c3cnc(N[C@@H]4CC[C@@H](C(=O)NC5CCN(CC(F)(F)F)C5)C4)nc32)cc2cccnc12 (mixture of isomers)"
  observed: "0.025 to 0.2 µM"
- compound: "CNC(=O)[C@]1(F)CC[C@@H](Nc2ncc3c(Br)nn(-c4cc(F)c5ncccc5c4)c3n2)C1"
  observed: "0.025 to 0.2 µM"
- compound: "C[C@@]1(C(=O)O)CC[C@@H](Nc2ncc3c(Br)nn(-c4cc(CCN)c5ncccc5c4)c3n2)C1"
  observed: "< 0.025 µM"
- compound: "Cc1nnc(-c2ccc(-n3nc(Br)c4cnc(N[C@@H]5CC[C@@](C)(CO)C5)nc43)cc2)s1"
  observed: "0.025 to 0.2 µM"
- compound: "CNC(=O)[C@]1(C)CC[C@@H](Nc2ncc3c(Br)nn(-c4ccc(-c5nnc(C(C)CC#N)o5)cc4)c3n2)C1 (stereo partly shown)"
  observed: "< 0.025 µM"
- compound: "CNC(=O)[C@H]1CC[C@@H](Nc2ncc3c(Br)nn(-c4cc(F)c5ncccc5c4)c3n2)C1"
  observed: "< 0.025 µM"
- compound: "CNC(=O)[C@]1(C)CC[C@@H](Nc2ncc3c(Br)nn(-c4ccc5nccc(P(C)(C)=O)c5c4)c3n2)C1"
  observed: "0.025 to 0.2 µM"
- compound: "CNC(=O)C1(C)CC[C@@H](Nc2ncc3c(Br)nn(-c4ccc5nc(C(C)(C)O)ccc5c4)c3n2)C1 (stereo partly shown)"
  observed: "0.025 to 0.2 µM"
- compound: "CNC(=O)[C@]1(C)CC[C@@H](Nc2ncc3c(Br)nn(-c4cc(Cl)cc(C5CN(C)C(=O)CO5)c4)c3n2)C1 (stereo partly shown)"
  observed: "0.025 to 0.2 µM"
- compound: "CNC(=O)C1(C)CC[C@@H](Nc2ncc3c(Br)nn(-c4cc(OC(F)(F)F)cc(C(C)O)c4)c3n2)C1 (stereo partly shown)"
  observed: "0.025 to 0.2 µM"
- compound: "Cc1nnc(-c2ccc(-n3nc(Br)c4cnc(N[C@@H]5CC[C@]6(CCNC6=O)C5)nc43)cc2)s1"
  observed: "0.025 to 0.2 µM"
- compound: "COCCNC(=O)C12CCC(Nc3ncc4c(Br)nn(-c5ccc6ncccc6c5)c4n3)(CC1)C2"
  observed: "0.2 to 0.5 µM"
- compound: "CNC(=O)C1(C)CC[C@@H](Nc2ncc3c(Br)nn(-c4ccc5cnccc5c4)c3n2)C1 (mixture of isomers)"
  observed: "0.2 to 0.5 µM"
- compound: "CNC(=O)[C@]1(CC(F)F)CC[C@@H](Nc2ncc3c(Br)nn(-c4ccc(-c5nnc(C)o5)cc4)c3n2)C1"
  observed: "0.025 to 0.2 µM"
- compound: "CNC(=O)[C@]1(C)CC[C@@H](Nc2ncc3c(Br)nn(-c4ccc(-c5nnc(C(C)(C)N)o5)c(C#N)c4)c3n2)C1"
  observed: "< 0.025 µM"
- compound: "Cc1nnc(-c2ccc(-n3nc(Br)c4cnc(N[C@@H]5CC[C@@](C)(N)C5)nc43)cc2)s1"
  observed: "0.025 to 0.2 µM"
- compound: "CNC(=O)[C@]1(C)CC[C@@H](Nc2ncc3c(Br)nn(-c4ccc5ncc(CNCCC#N)cc5c4)c3n2)C1"
  observed: "0.025 to 0.2 µM"
- compound: "O=C(Nc1cnn(C2CC2)c1)[C@@H]1CC[C@@H](Nc2ncc3c(Br)nn(-c4cc(F)c5ncccc5c4)c3n2)C1"
  observed: "0.2 to 0.5 µM"
- compound: "Cc1nnc(-c2ccc(-n3nc(Br)c4cnc(N[C@@H]5CC[C@](C(=O)N6CCNCC6)(C(C)C)C5)nc43)cc2CCC#N)s1"
  observed: "< 0.025 µM"
- compound: "CNC(=O)[C@]1(C)CC[C@@H](Nc2ncc3c(Br)nn(-c4cc(CCNC(C)=O)c5ncccc5c4)c3n2)C1"
  observed: "0.025 to 0.2 µM"
- compound: "NCCc1cc(-n2nc(Br)c3cnc(NC4CC(O)C4)nc32)cc2cccnc12 (stereo not shown)"
  observed: "0.025 to 0.2 µM"
- compound: "CCS(=O)(=O)N1Cc2ccc(-n3nc(Br)c4cnc(N[C@@H]5CC[C@@](C)(C(=O)NC)C5)nc43)cc2C1"
  observed: "0.025 to 0.2 µM"
- compound: "CNC(=O)[C@]1(C)CC[C@@H](Nc2ncc3c(Br)nn(-c4cc(Cl)cc(CCNS(C)(=O)=O)c4)c3n2)C1"
  observed: "0.025 to 0.2 µM"
- compound: "NC(=O)C1(NC(=O)[C@@H]2CC[C@@H](Nc3ncc4c(Br)nn(-c5cc(F)c6ncccc6c5)c4n3)C2)CC1"
  observed: "0.025 to 0.2 µM"
- compound: "CNC(=O)C1(CCC#N)CC[C@@H](Nc2ncc3c(Br)nn(-c4ccc(-c5nnc(C)s5)cc4)c3n2)C1 (stereo partly shown)"
  observed: "0.025 to 0.2 µM"

Data origin: patent US11046699B2
